ASSAYED SYSTEM: Runt-related transcription factor 1 (Homo sapiens) + Core-binding factor subunit beta (Homo sapiens) (UniProt Q01196+Q13951)
Sequence (Q01196 whole entry, looked up): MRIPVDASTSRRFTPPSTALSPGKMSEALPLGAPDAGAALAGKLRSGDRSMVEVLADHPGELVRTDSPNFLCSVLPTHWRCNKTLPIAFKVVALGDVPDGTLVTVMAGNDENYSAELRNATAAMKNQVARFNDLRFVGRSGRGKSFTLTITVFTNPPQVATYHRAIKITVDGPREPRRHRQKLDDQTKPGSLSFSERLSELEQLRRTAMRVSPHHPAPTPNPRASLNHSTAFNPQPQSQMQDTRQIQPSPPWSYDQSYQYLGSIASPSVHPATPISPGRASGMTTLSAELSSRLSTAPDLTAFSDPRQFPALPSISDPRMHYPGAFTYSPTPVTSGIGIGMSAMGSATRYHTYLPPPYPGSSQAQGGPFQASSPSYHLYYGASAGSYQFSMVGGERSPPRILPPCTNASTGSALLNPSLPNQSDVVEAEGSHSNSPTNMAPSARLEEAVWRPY
Sequence (Q13951 whole entry, looked up): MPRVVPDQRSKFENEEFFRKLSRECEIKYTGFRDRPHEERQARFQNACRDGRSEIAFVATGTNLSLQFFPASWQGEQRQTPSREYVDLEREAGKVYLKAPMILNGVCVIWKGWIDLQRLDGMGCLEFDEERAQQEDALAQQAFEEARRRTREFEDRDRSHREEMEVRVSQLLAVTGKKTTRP
TEST PROTOCOL: qHTS Assay for Compounds Blocking the Interaction Between CBF-beta and RUNX1 for the Treatment of Acute Myeloid Leukemia: Hit Validation; also: nearly all actives have a fitted effect of over 60% in size; also: potency is read from the fitted curve at half-maximal effect
EXPERIMENTAL SETUP: AlphaScreen CBFb-His/RUNX1-biotin binding; series mostly up to 59.8 µM
About 100 (6.7%) of roughly 1,500 compounds were called active. Another 7% or so got no clear call; they are omitted. The list comes from a sample in which actives are over-represented; it also holds close analogues and randomly drawn compounds.
ATTRIBUTE MEASURED: Potency

Illustrative cases are given below, each with its answer.
• CCOC(=O)Cc1csc(NC(=O)Nc2cccc(OC)c2)n1 = inactive
• Cc1ccccc1NC(=S)Nc1ccccn1 = inactive
• C=CCNC(=S)Nc1c(C(=O)OC)[nH]c2cc(OC)ccc12 = inactive
• Cc1ccc(Cl)cc1NC(=S)N(CCN(C)C)C(C)c1ccccn1 (stereo not drawn) = 5.46 µM (active)

(Q) # get_value(readout='Potency', item= CCCCn1cc([N+](=O)[O-])nc1C )
(A) inactive

(Q) # get_value(readout='Potency', item= CC(=O)NCC1(O)CCCC(C)C1 (stereo not drawn) )
(A) inactive

(Q) # get_value(readout='Potency', item= NNC(=O)c1ccc(Cn2cccn2)o1 )
(A) inactive

(Q) # get_value(readout='Potency', item= Cc1cccc(C)c1NC(=S)N(CCN(C)C)C(C)c1ccccn1 (stereo not drawn) )
(A) 4.86 µM (active)

(Q) # get_value(readout='Potency', item= COc1ccc(C(=O)NC(=S)Nc2ccc(CN3CCOCC3)cc2)cc1 )
(A) inactive
